Every entry's value here was drawn from PubChem BioAssay AID2060912.

# Tested on: HUVEC/MSC spheroids viability
# Assay Procedure: Human HUVEC/MSC cell line growth inhibition [KRAS2];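 further: percent of DMSO vehicle control luminescence so 100% = untreated viability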
# Measurement Conditions: second compound 3.16 µM; first compound 10 µM; stronger effect = lower value
Property Name: viability, T/C (%)

[[record]]
molecule = "O=C(c1cc(Cc2n[nH]c(=O)c3ccccc23)ccc1F)N1CCN(C(=O)C2CC2)CC1 + C=CC(=O)N1CCN(c2nc(=O)n(-c3c(C)ccnc3C(C)C)c3nc(-c4c(O)cccc4F)c(F)cc23)C(C)C1"
meas_value = 125

[[record]]
molecule = "CC1(C)CCC(CN2CCN(c3ccc(C(=O)NS(=O)(=O)c4ccc(NCC5CCOCC5)c([N+](=O)[O-])c4)c(Oc4cnc5[nH]ccc5c4)c3)CC2)=C(c2ccc(Cl)cc2)C1 + C=CC(=O)N1CCN(c2nc(=O)n(-c3c(C)ccnc3C(C)C)c3nc(-c4c(O)cccc4F)c(F)cc23)C(C)C1"
meas_value = 8.7

[[record]]
molecule = "COC(=O)c1ccc2c(C(=Nc3ccc(N(C)C(=O)CN4CCN(C)CC4)cc3)c3ccccc3)c(O)[nH]c2c1 + C=CC(=O)N1CCN(c2nc(=O)n(-c3c(C)ccnc3C(C)C)c3nc(-c4c(O)cccc4F)c(F)cc23)C(C)C1"
meas_value = 0.46

[[record]]
molecule = "CC(C)NCC(C(=O)N1CCN(c2ncnc3c2C(C)CC3O)CC1)c1ccc(Cl)cc1 (stereo not given) + CNCc1ccccc1-c1csc(C(C)Nc2nc(C)nc3cc(OC)c(OC)cc23)c1"
meas_value = 57.7

[[record]]
molecule = "Cn1nccc1Nc1nccc(-c2cc3c(s2)C(C)(C)N(CCN2CCOCC2)C3=O)n1 + C=CC(=O)N1CCN(c2nc(=O)n(-c3c(C)ccnc3C(C)C)c3nc(-c4c(O)cccc4F)c(F)cc23)C(C)C1"
meas_value = 4.12

[[record]]
molecule = "COc1cc(Nc2ncc3c(n2)-c2ccc(Cl)cc2C(c2c(F)cccc2OC)=NC3)ccc1C(=O)O + C=CC(=O)N1CCN(c2nc(=O)n(-c3c(C)ccnc3C(C)C)c3nc(-c4c(O)cccc4F)c(F)cc23)C(C)C1"
meas_value = 83.3

[[record]]
molecule = "CC1(C)CCC(CN2CCN(c3ccc(C(=O)NS(=O)(=O)c4ccc(NCC5CCOCC5)c([N+](=O)[O-])c4)c(Oc4cnc5[nH]ccc5c4)c3)CC2)=C(c2ccc(Cl)cc2)C1 + CC1OCC2(CCN(c3cnc(Sc4ccnc(N)c4Cl)c(N)n3)CC2)C1N"
meas_value = 0.92

[[record]]
molecule = "COc1cc2nccc(Oc3ccc(NC(=O)C4(C(=O)Nc5ccc(F)cc5)CC4)cc3)c2cc1OC + C=CC(=O)N1CCN(c2nc(=O)n(-c3c(C)ccnc3C(C)C)c3nc(-c4c(O)cccc4F)c(F)cc23)C(C)C1"
meas_value = 56.9

[[record]]
molecule = "CC1(C)CCC(CN2CCN(c3ccc(C(=O)NS(=O)(=O)c4ccc(NCC5CCOCC5)c([N+](=O)[O-])c4)c(Oc4cnc5[nH]ccc5c4)c3)CC2)=C(c2ccc(Cl)cc2)C1 + COc1cc2nc(C)nc(NC(C)c3cc(N)cc(C(F)(F)F)c3)c2cc1OC1CCOC1"
meas_value = 8.97

[[record]]
molecule = "CC1OCC2(CCN(c3cnc(Sc4ccnc(N)c4Cl)c(N)n3)CC2)C1N (stereo not given) + CNCc1ccccc1-c1csc(C(C)Nc2nc(C)nc3cc(OC)c(OC)cc23)c1"
meas_value = 4.77

[[record]]
molecule = "COc1cc2nccc(Oc3ccc(NC(=O)C4(C(=O)Nc5ccc(F)cc5)CC4)cc3)c2cc1OC + COc1cc2nc(C)nc(NC(C)c3cc(N)cc(C(F)(F)F)c3)c2cc1OC1CCOC1"
meas_value = 3.26

[[record]]
molecule = "CCNC(=O)CC1N=C(c2ccc(Cl)cc2)c2cc(OC)ccc2-n2c(C)nnc21 (stereo not given) + CC1OCC2(CCN(c3cnc(Sc4ccnc(N)c4Cl)c(N)n3)CC2)C1N"
meas_value = 51.3

[[record]]
molecule = "COC(=O)c1ccc2c(C(=Nc3ccc(N(C)C(=O)CN4CCN(C)CC4)cc3)c3ccccc3)c(O)[nH]c2c1 + CC1OCC2(CCN(c3cnc(Sc4ccnc(N)c4Cl)c(N)n3)CC2)C1N"
meas_value = 0.29

[[record]]
molecule = "COc1cc2nccc(Oc3ccc(NC(=O)C4(C(=O)Nc5ccc(F)cc5)CC4)cc3)c2cc1OC + CNCc1ccccc1-c1csc(C(C)Nc2nc(C)nc3cc(OC)c(OC)cc23)c1"
meas_value = 0.22

[[record]]
molecule = "O=C(c1cc(Cc2n[nH]c(=O)c3ccccc23)ccc1F)N1CCN(C(=O)C2CC2)CC1 + CC1OCC2(CCN(c3cnc(Sc4ccnc(N)c4Cl)c(N)n3)CC2)C1N"
meas_value = 90.8

[[record]]
molecule = "Cn1nccc1Nc1nccc(-c2cc3c(s2)C(C)(C)N(CCN2CCOCC2)C3=O)n1 + CC1OCC2(CCN(c3cnc(Sc4ccnc(N)c4Cl)c(N)n3)CC2)C1N"
meas_value = 8.64

[[record]]
molecule = "CC1OCC2(CCN(c3cnc(Sc4ccnc(N)c4Cl)c(N)n3)CC2)C1N (stereo not given) + C=CC(=O)N1CCN(c2nc(=O)n(-c3c(C)ccnc3C(C)C)c3nc(-c4c(O)cccc4F)c(F)cc23)C(C)C1"
meas_value = 71.3

[[record]]
molecule = "CCNC(=O)CC1N=C(c2ccc(Cl)cc2)c2cc(OC)ccc2-n2c(C)nnc21 (stereo not given) + COc1cc2nc(C)nc(NC(C)c3cc(N)cc(C(F)(F)F)c3)c2cc1OC1CCOC1"
meas_value = 109

[[record]]
molecule = "O=C(c1cc(Cc2n[nH]c(=O)c3ccccc23)ccc1F)N1CCN(C(=O)C2CC2)CC1 + CNCc1ccccc1-c1csc(C(C)Nc2nc(C)nc3cc(OC)c(OC)cc23)c1"
meas_value = 95.8

[[record]]
molecule = "Cn1nccc1Nc1nccc(-c2cc3c(s2)C(C)(C)N(CCN2CCOCC2)C3=O)n1 + COc1cc2nc(C)nc(NC(C)c3cc(N)cc(C(F)(F)F)c3)c2cc1OC1CCOC1"
meas_value = 3.79

